Measured Plant response rating, Foxtail, Giant values are reported for all entries that follow.
- Test system: Foxtail, Giant (giant foxtail, Setaria faberi)
- assay: Test A preemergence, Foxtail, Giant
- Format: in vivo
- run_conditions: Preemergence, 31 g ai/ha; visual injury, 0 to 100 scale (0 no effect, 100 complete control), approx. 10 days
Give the figure only, with no unit attached.

[[record]]
compound = "CSC1CCCN(C(=O)c2cc(NS(=O)(=O)C(F)(F)F)c(C)cc2C)C1 (stereo not drawn)"
data_value = 20

[[record]]
compound = "CSc1cc(-c2cc(NS(=O)(=O)C(F)(F)F)c(C)cc2C)c(=O)n(C)n1"
data_value = 20

[[record]]
compound = "COC(=O)N(c1cc(C(=O)N2CCCC(OC)C2)c(C)cc1C)S(=O)(=O)C(F)(F)F (stereo not drawn)"
data_value = 100

[[record]]
compound = "Cc1cc(C)c(N(COC(=O)c2ccccc2)S(=O)(=O)C(F)(F)F)cc1C1=NOC2(CCCC2)C1"
data_value = 30

[[record]]
compound = "Cc1cc(C)c(N(S(=O)(=O)C(F)(F)F)S(=O)(=O)C(F)(F)F)cc1N1CC2(CCOCC2)OC1=O"
data_value = 80

[[record]]
compound = "CCC(=O)OCN(c1cc(C2=NOC3(CCCC3)C2)c(C)cc1C)S(=O)(=O)C(F)(F)F"
data_value = 90


# get_value(readout='Plant response rating, Foxtail, Giant', item= Cc1cc(C)c(C(=O)N2CCCC(F)C2)cc1NS(=O)(=O)C(F)(F)F (stereo not drawn) ) 50

Which measured Plant response rating, Foxtail, Giant value corresponds to Cc1cc(C)c(N(S(=O)(=O)C(F)(F)F)S(=O)(=O)C(F)(F)F)cc1C(=O)N1CCCC(F)C1 (stereo not drawn) ? 80

Which Plant response rating, Foxtail, Giant reading was recorded for the compound COC1CCCN(C(=O)c2cc(N(C(C)=O)S(=O)(=O)C(F)(F)F)c(C)cc2C)C1 (stereo not drawn) ? 60

So what's the measured Plant response rating, Foxtail, Giant for this one? COC1CN(C(=O)c2cc(NS(=O)(=O)C(F)(F)F)c(C)cc2C)C1 0

Given the compound Cc1cc(Cl)c(NS(=O)(=O)C(F)(F)F)cc1C(=O)N1CCOC(C)C1 (stereo not drawn) , what is its reported Plant response rating, Foxtail, Giant? 20

Could you tell me which Plant response rating, Foxtail, Giant is on file for Cc1cc(C(=O)N2CCOC(C)(C)C2)cc(NS(=O)(=O)C(F)(F)F)c1Cl ? 80

---

Measured Barnyardgrass plant response rating accompanies every entry in the list below.
- Tested on: barnyardgrass (Echinochloa crus-galli)
- assay: Test A postemergence, barnyardgrass
- Format: in vivo
- run_conditions: Postemergence, 500 g ai/ha; visual injury vs untreated controls after approx. 10 days; 0 to 100 scale (0 no effect, 100 complete control)
Provide a numeric answer; units are not to be included.

I'd like to know its Barnyardgrass plant response rating. The compound in question is Cc1c(NS(=O)(=O)C(F)(F)F)cc(C(=O)N2CCC(F)CC2)c(C)c1F 70

Requested read-out: Barnyardgrass plant response rating. Entry: Cc1cc(F)c(C(=O)N(C)C)cc1N(S(=O)(=O)C(F)(F)F)S(=O)(=O)C(F)(F)F 50

# query: Barnyardgrass plant response rating of entry Cc1cc(C)c(N(S(=O)(=O)C(F)(F)F)S(=O)(=O)C(F)(F)F)cc1C1=NOC2CCCC12 (stereo not shown) 90

Any idea what its Barnyardgrass plant response rating is? The compound is Cc1cc(C)c(C2=NOC3CCCC23)cc1NS(=O)(=O)C(F)(F)F (stereo not shown) [Compound 164] 90

What Barnyardgrass plant response rating value was documented for this compound, COc1cc(C)c(NS(=O)(=O)C(F)(F)F)cc1-c1ccnn(C)c1=O ? 80

Give its Barnyardgrass plant response rating value. Item: Cc1cc(C(F)(F)F)c(NS(=O)(=O)C(F)(F)F)cc1C(=O)N1CCCCC1 30

Requested field: Barnyardgrass plant response rating. Item: Cc1ccc(=O)n(-c2cc(NS(=O)(=O)C(F)(F)F)c(C)cc2C)n1 20
